Values from patent US20150274820A1

- targetOfAssay: T1, recombinant human VEGF165 (human, UniProt P15692 27-191)
- T1 construct: mature; Isoform VEGF165 of the entry; also called hVEGF165; hVEGF
- T1 sequence (P15692 other isoform, or with tags, fused parts or gaps): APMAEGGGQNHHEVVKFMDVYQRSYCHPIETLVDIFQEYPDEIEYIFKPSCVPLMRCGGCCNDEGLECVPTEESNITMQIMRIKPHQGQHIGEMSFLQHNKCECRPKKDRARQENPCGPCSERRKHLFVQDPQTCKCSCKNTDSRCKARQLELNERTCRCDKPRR
- assaySummary: Biacore SPR, VEGF immobilized, pH 5
This section presents binders with their documented kon values.
observable: kon

binder	observable	observed
534-max (scFv, VL and VH tied by name; also called EP534max; Protein Nr; 793) scFv: EIVMTQSPSTLSASVGDRVIITCQASQSINIWLSWYQQKPGKAPKLLIYKESTLASGVPSRFSGSGSGTEFTLTISSLQPDDFATYYCQNNYDSGNNGFPFGQGTKLTVLGGGGGSGGGGSGGGGSGGGGSEVQLVESGGGLVQPGGSLRLSCTASGFSLSYYYMSWVRQAPGKGLEWVGIIGPGDYTDYASWAKGRFTISKDTSKNTVYLQMNSLRAEDTAVYYCARGDDNSGWGEDIWGQGTLVTVSS	kon	1.88e+06 M⁻¹ s⁻¹
534-min C-His (scFv, VL and VH tied by name; His tag only named (C-His); also called Protein Nr; 807; not shown: C-terminal His tag) scFv: EIVMTQSPSTLSASVGDRVIITCQASQSINIWLSWYQQKPGKAPKLLIYKESTLASGVPSRFSGSGSGAEFTLTISSLQPDDFATYYCQNNYDSGNNGFPFGQGTKLTVLGGGGGSGGGGSGGGGSGGGGSEVQLVESGGGLVQPGGSLRLSCAASGFSLSYYYMSWVRQAPGKGLEWVSIIGPGDYTDYASWAKGRFTISRDNSKNTLYLQMNSLRAEDTAVYYCAKGDDNSGWGEDIWGQGTLVTVSS	kon	271000 M⁻¹ s⁻¹
375-min (scFv, VL and VH tied by name; also called Protein Nr; 857) scFv: EIVMTQSPSTLSASVGDRVIITCQASENINIWLSWYQQKPGKAPKLLIYQASKLASGVPSRFSGSGSGAEFTLTISSLQPDDFATYYCQNNYSYNRYGAPFGQGTKLTVLGGGGGSGGGGSGGGGSGGGGSEVQLVESGGGLVQPGGSLRLSCAASGFSFTTTDYMCWVRQAPGKGLEWVSCILAGDGSTYYANWAKGRFTISRDNSKNTLYLQMNSLRAEDTAVYYCAKSDPASSWSFALWGQGTLVTVSS	kon	927000 M⁻¹ s⁻¹
567-max (scFv, VL and VH tied by name; also called Protein Nr; 874) scFv: EIVMTQSPSTLSASVGDRVIITCQADQSIYIWLSWYQQKPGKAPKLLIYKASTLESGVPSRFSGSGSGTQFTLTISSLQPDDFATYYCQNNAHYSTNGGTFGQGTKLTVLGGGGGSGGGGSGGGGSGGGGSEVQLVESGGGLVQPGGSLRLSCSVSGFSLSDYYMCWVRQAPGKGLEWVGCLDYFGSTDDASWAKGRFTISKDTSKNTVYLQMNSLRAEDTAVYYCARTDDSRGWGLNIWGQGTLVTVSS	kon	1.2e+06 M⁻¹ s⁻¹
435-max (scFv, the scFv entry is used; also called Protein Nr; 945) scFv: EIVMTQSPSTLSASVGDRVIITCQASQSIGSSLAWYQQKPGKAPKLLIYTAANLASGVPSRFSGSRSGAEFTLTISSLQPDDFATYYCQNFATSDTVTFGQGTKLTVLGGGGGSGGGGSGGGGSGGGGSEVQLVESGGGLVQPGGSLRLSCKASGFSLNTNYWMCWVRQAPGKGLEWVGCMYTGSYNRAYYASWAKGRFTSSKDTSKNTVYLQMNSLRAEDTAVYYCAKGSNWYSDLWGQGTLVTVSS	kon	167000 M⁻¹ s⁻¹
610-max (scFv, VL and VH tied by name; also called Protein Nr) scFv: EIVMTQSPSTLSASVGDRVIITCQASQSISSWLSWYQQKPGKAPKLLIYQASTLASGVPSRFSGSGSGTEFTLTISSLQPDDFATYYCQNNYGFRSYGGAFGQGTKLTVLGGGGGSGGGGSGGGGSGGGGSEVQLVESGGGLVQPGGSLRLSCTASGIDFSGAYYMGWVRQAPGKGLEWVGYIDYDGDRYYASWAKGRFTISKDTSKNTVYLQMNSLRAEDTAVYYCARSDYSSGWGTDIWGQGTLVTVSS	kon	509000 M⁻¹ s⁻¹
567-min (scFv, also called Protein Nr; 884) scFv: EIVMTQSPSTLSASVGDRVIITCQADQSIYIWLSWYQQKPGKAPKLLIYKASTLESGVPSRFSGSGSGAEFTLTISSLQPDDFATYYCQNNAHYSTNGGTFGQGTKLTVLGGGGGSGGGGSGGGGSGGGGSEVQLVESGGGLVQPGGSLRLSCAASGFSLSDYYMCWVRQAPGKGLEWVSCLDYFGSTDDASWAKGRFTISRDNSKNTLYLQMNSLRAEDTAVYYCAKTDDSRGWGLNIWGQGTLVTVSS	kon	2.01e+06 M⁻¹ s⁻¹
511-max (scFv, also called ESBA802) scFv: EIVMTQSPSTLSASVGDRVIITCQASQSINIWLSWYQQKPGKAPKLLIYRASTLASGVPSRFSGSGSGTEFTLTISSLQPDDFATYYCQANYAYSAGYGAAFGQGTKLTVLGGGGGSGGGGSGGGGSGGGGSEVQLVESGGGLVQPGGSLRLSCTVSGFSLNTYYMNWVRQAPGKGLEWVGIIAPDDTTYYASWAKSRSTISRDTSKNTVYLQMNSLRAEDTAVYYCARSGDTTAWGADIWGQGTLVTVSS	kon	659000 M⁻¹ s⁻¹
509-min (scFv, VL and VH tied by name; also called Protein Nr; 854) scFv: EIVMTQSPSTLSASVGDRVIITCQASQNIRIWLSWYQQKPGKAPKLLIYKASTLESGVPSRFSGSGSGAEFTLTISSLQPDDFATYYCQNNAHYSTNGGTFGQGTKLTVLGGGGGSGGGGSGGGGSGGGGSEVQLVESGGGLVQPGGSLRLSCAASGFSLSSYYMCWVRQAPGKGLEWVSCLDYVGDTDYASWAKGRFTISRDNSKNTLYLQMNSLRAEDTAVYYCAKTDDSRGWGLNIWGQGTLVTVSS	kon	623000 M⁻¹ s⁻¹
375-max (scFv, VL and VH tied by name; also called Protein Nr; 873) scFv: EIVMTQSPSTLSASVGDRVIITCQASENINIWLSWYQQKPGKAPKLLIYQASKLASGVPSRFSGSGSGTQFTLTISSLQPDDFATYYCQNNYSYNRYGAPFGQGTKLTVLGGGGGSGGGGSGGGGSGGGGSEVQLVESGGGLVQPGGSLRLSCKASGFSFTTTDYMCWVRQAPGKGLEWVGCILAGDGSTYYANWAKGRFTGSKDTSKNTVYLQMNSLRAEDTAVYYCARSDPASSWSFALWGQGTLVTVSS	kon	2.44e+06 M⁻¹ s⁻¹
509-maxII (scFv, VH tied by name; also called Protein Nr) scFv: EIVMTQSPSTLSASVGDRVIITCQASQNIRIWLSWYQQKPGKAPKLLIYKASTLESGVPSRFSGSGSGTEFTLTISSLQPDDFATYYCQNNAHYSTNGGTFGQGTKLTVLGGGGGSGGGGSGGGGSGGGGSEVQLVESGGGLVQPGGSLRLSCTASGFSLSSYYMSWVRQAPGKGLEWVGILDYVGDTDYASWAKGRFTISKDASKNTVYLQMNSLRAEDTAVYYCARTDDSRGWGLNIWGQGTLVTVSS	kon	838000 M⁻¹ s⁻¹
